- PROCEDURE_TEXT: chemical genetic growth profiling, strain panel (AID 1159580);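 note: tested at 20 µM; growth read once vehicle control cultures reached saturation at 30 °C; 1 = growth at the plate median or of vehicle wells; lower values mean less growth of the strain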
- REPORTED_CONDITIONS: S. cerevisiae deletion strains, growth OD, locus YNL183C, strain NPR1
In all, about 5,500 compounds went through this assay and about 2,000 (36%) were called active. About 18% were inconclusive and are not listed. Cut-off read from the data, not from the text of the source: active = normalized growth mostly below about 0.91 (no sharp cut-off); inconclusive = no clear call, values can overlap the other calls; inactive = mostly above about 0.92. The list shows a part of the results.
Select the correct class. Options are active, inactive and nothing else.

Qu. Which result was noted for this compound in the test: CCOC(=O)C1=C(N)OC2=C(C(=O)CC(C)(C)C2)C1c1ccc(Cl)cc1Cl (stereo unspecified)
Ans. inactive

Qu. Which result was noted for this compound in the test: C1CCN2C[C@@H]3C[C@H](CN4CCCC[C@@H]34)[C@H]2C1
Ans. inactive

Qu. Which result was noted for this compound in the test: CSc1cc(-c2ccncc2)nc(-c2cccs2)c1
Ans. inactive

Qu. Which result was noted for this compound in the test: O[N+]1=CC=CCC1=S.On1ccccc1=S.[Zn]
Ans. active

Qu. Which result was noted for this compound in the test: Cc1ccsc1/C=C/C1=NCCCN1C
Ans. inactive

Qu. Which result was noted for this compound in the test: COC(=O)C1=C(C)NC(C)=C(C(=O)OC)C1c1ccc(Cl)cc1Cl
Ans. inactive

###

- PROCEDURE_TEXT: chemical genetic growth profiling, strain panel (AID 1159580)
- REPORTED_CONDITIONS: S. cerevisiae deletion strains, growth OD, locus YER167W, strain BCK2, hits give low values
Screen size: about 5,500 compounds; about 2,000 (36%) were called active. Not shown: some 18% with an inconclusive outcome. The list shows a part of the results.
QUANTITY_NAME: normalized growth
// return just the number, without any unit appended

Qu. Item under review: CNc1ccccc1C(=O)O . Reported normalized growth?
Ans. 1

Qu. Item under review: CCC(Cc1c(I)cc(I)c(N)c1I)C(=O)O (configuration not stated) . Reported normalized growth?
Ans. 0.998

Qu. Item under review: C=C(CC)C(=O)c1ccc(OCC(=O)O)c(Cl)c1Cl . Reported normalized growth?
Ans. 1

Qu. Item under review: CC(=O)OCC1(C)CCC2(C)CCC3(C)C4=CCc5c(cc(OC(C)=O)c(OC(C)=O)c5C)C4(C)CCC3(C)C2C1 (configuration not stated) . Reported normalized growth?
Ans. 1

Qu. Item under review: Cc1ccc(/C(=C\CN2CCCC2)c2ccccn2)cc1 . Reported normalized growth?
Ans. 1.01

Qu. Item under review: C=C(C)[C@H]1CC=C(C(=O)O)CC1 . Reported normalized growth?
Ans. 0.978

Qu. Item under review: COC(=O)[C@]1(C)CC[C@]2(C)CC[C@]3(C)C4=CCc5c(cc(O)c(O)c5C)[C@]4(C)CC[C@@]3(C)C2C1 (some centres not stated) . Reported normalized growth?
Ans. 0.992

Qu. Item under review: c1ccc2c3c([nH]c2c1)CNCC3 . Reported normalized growth?
Ans. 0.999

Qu. Item under review: Nc1ncn([C@@H]2O[C@H](CO)[C@@H](O)[C@H]2O)c(=O)n1 . Reported normalized growth?
Ans. 0.996

Qu. Item under review: C=C[C@](C)(O)CCC=C(C)C . Reported normalized growth?
Ans. 1.01

Qu. Item under review: O=C(O)CF . Reported normalized growth?
Ans. 0.985

Qu. Item under review: CC(C)(C)NC[C@@H](O)COc1nsnc1N1CCOCC1 . Reported normalized growth?
Ans. 0.986

Qu. Item under review: CC(=O)NCCCCCC(=O)O . Reported normalized growth?
Ans. 1

Qu. Item under review: CN/C(=C\[N+](=O)[O-])NCCSCc1ccc(CN(C)C)o1 . Reported normalized growth?
Ans. 1.02

Qu. Item under review: NCCNC(=O)c1ccc(Cl)cc1 . Reported normalized growth?
Ans. 0.99

Qu. Item under review: CCC[C@H]1CC2=C(C[C@@H](CC)CC3=C1C(=O)OC3=O)C(=O)OC2=O . Reported normalized growth?
Ans. 1.01

Qu. Item under review: CSCCC(NC=O)C(=O)NC(C)C(=O)O (configuration not stated) . Reported normalized growth?
Ans. 0.988

###

- PROCEDURE_TEXT: chemical genetic growth profiling, strain panel (AID 1159580);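 note: tested at 20 µM; growth read once vehicle control cultures reached saturation at 30 °C; 1 = growth at the plate median or of vehicle wells; lower values mean less growth of the strain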
- REPORTED_CONDITIONS: S. cerevisiae deletion strains, growth OD, locus YDL035C, strain GPR1
About 2,000 (36%) of roughly 5,500 compounds were called active. About 18% were inconclusive and are not listed. Rule as the data show it: active = normalized growth mostly below about 0.91 (no sharp cut-off); inconclusive = no clear call, values can overlap the other calls; inactive = mostly above about 0.92. The list shows a part of the results.
Select the correct class. Options are T (active), F (inactive) and nothing else.

Qu. Which result was noted for this compound in the test: COC(C)(C)CCC[C@H](C)C/C=C/C(C)=C/C(=O)OC(C)C
Ans. F

Qu. Which result was noted for this compound in the test: Nc1nc2ncc(C(=O)O)nc2c(=O)[nH]1
Ans. F

Qu. Which result was noted for this compound in the test: Oc1ccc(Cl)c2cccnc12
Ans. T

Qu. Which result was noted for this compound in the test: CC1(C)C(C(Cl)Cl)C2(Cl)C(Cl)C(Cl)C1(Cl)C2(Cl)Cl (centres undefined)
Ans. F

Qu. Which result was noted for this compound in the test: CC(=O)Nc1ccc(S(=O)(=O)Nc2ccc([N+](=O)[O-])cc2)cc1
Ans. F

Qu. Which result was noted for this compound in the test: COC(=O)C[C@H]1C(C)(C)C(=O)[C@@H]2CC3=C4CC(=O)O[C@@H](c5ccoc5)[C@]4(C)CCC3[C@@]1(C)C2=O (some centres undefined)
Ans. F

Qu. Which result was noted for this compound in the test: CCCC1O[C@@H]2CC3C4CCC5=CC(=O)C=CC5(C)C4[C@@H](O)CC3(C)[C@]2(C(=O)CO)O1 (some centres undefined)
Ans. F

Qu. Which result was noted for this compound in the test: O=C(O)CCC(=O)C(=O)O
Ans. F

Qu. Which result was noted for this compound in the test: C=C(C)[C@H]1CC=C(C(=O)O)CC1
Ans. F

Qu. Which result was noted for this compound in the test: COc1ccc(C(Cl)=C(c2ccc(OC)cc2)c2ccc(OC)cc2)cc1
Ans. F

Qu. Which result was noted for this compound in the test: CS(=O)(=O)CCCCN=C=S
Ans. T

Qu. Which result was noted for this compound in the test: O=C(O)c1cccnc1Nc1cccc(C(F)(F)F)c1
Ans. F

Qu. Which result was noted for this compound in the test: O=C(O)CF
Ans. F

Qu. Which result was noted for this compound in the test: COC(=O)Oc1ccccc1C(=O)O
Ans. F

Qu. Which result was noted for this compound in the test: C[n+]1cccc(C(=O)[O-])c1
Ans. F

Qu. Which result was noted for this compound in the test: CCN(CC)CCOc1ccc(/C(=C(\Cl)c2ccccc2)c2ccccc2)cc1
Ans. T

Qu. Which result was noted for this compound in the test: C1CCN2CC3CC(CN4CCCCC34)C2C1 (centres undefined)
Ans. F

Qu. Which result was noted for this compound in the test: CCCCC(CC)CN1CN(CC(CC)CCCC)CC(C)(N)C1 (centres undefined)
Ans. T

Qu. Which result was noted for this compound in the test: O[N+]1=CC=CCC1=S.On1ccccc1=S.[Zn]
Ans. T

###

- PROCEDURE_TEXT: chemical genetic growth profiling, strain panel (AID 1159580);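 note: tested at 20 µM; growth read once vehicle control cultures reached saturation at 30 °C; 1 = growth at the plate median or of vehicle wells; lower values mean less growth of the strain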
- REPORTED_CONDITIONS: S. cerevisiae deletion strains, growth OD, locus YJR043C, strain POL32, hits give low values
In all, about 5,500 compounds went through this assay and about 2,000 (36%) were called active. About 18% were inconclusive and are not listed. Some of the results follow.
QUANTITY_NAME: normalized growth
// return just the number, without any unit appended

Qu. Item under review: CN[C@H](CC(=O)O)C(=O)O . Reported normalized growth?
Ans. 1

Qu. Item under review: CNc1ccccc1C(=O)O . Reported normalized growth?
Ans. 1.01

Qu. Item under review: O=C(O)c1ccccc1Nc1cccc(C(F)(F)F)c1 . Reported normalized growth?
Ans. 0.775

Qu. Item under review: O=C(/C=N\Nc1ccccc1)Nc1ccccc1C(=O)O . Reported normalized growth?
Ans. 0.989

###

- PROCEDURE_TEXT: chemical genetic growth profiling, strain panel (AID 1159580);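 note: tested at 20 µM; growth read once vehicle control cultures reached saturation at 30 °C; 1 = growth at the plate median or of vehicle wells; lower values mean less growth of the strain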
- REPORTED_CONDITIONS: S. cerevisiae deletion strains, growth OD, locus YDR150W, strain NUM1, hits give low values
Among all 5,500 compounds or so, about 2,000 (36%) were called active. Another 18% or so got no clear call; they are omitted. The list shows a part of the results.
QUANTITY_NAME: normalized growth

Qu. Item under review: CSc1c(C#N)c(-c2cccs2)nn1C . Reported normalized growth?
Ans. 0.86 (inactive)

Qu. Item under review: CC(C)NC[C@H](O)c1ccc(O)c(O)c1 . Reported normalized growth?
Ans. 0.99 (inactive)

Qu. Item under review: c1ccc2c3c([nH]c2c1)CNCC3 . Reported normalized growth?
Ans. 1 (inactive)

Qu. Item under review: COC(=O)c1cc(OC)c(OC)cc1-n1c(C)ccc1C . Reported normalized growth?
Ans. 0.947 (inactive)

Qu. Item under review: CN1C(CC(=O)c2ccccc2)CCCC1CC(O)c1ccccc1 (stereo unspecified) . Reported normalized growth?
Ans. 1.02 (inactive)

Qu. Item under review: CN1CCN(C=Nc2ncc(C(F)(F)F)cc2Cl)CC1 . Reported normalized growth?
Ans. 0.974 (inactive)

Qu. Item under review: CNC[C@H](O)c1ccc(O)c(O)c1 . Reported normalized growth?
Ans. 1 (inactive)

Qu. Item under review: O=C(O)/C=C/c1cnc[nH]1 . Reported normalized growth?
Ans. 1.02 (inactive)

Qu. Item under review: Cc1c(Cl)cccc1NC(=S)Nc1ccc(Cl)cc1C(=O)c1ccccc1 . Reported normalized growth?
Ans. 0.987 (inactive)

Qu. Item under review: CCC[C@H]1CC2=C(C[C@@H](CC)CC3=C1C(=O)OC3=O)C(=O)OC2=O . Reported normalized growth?
Ans. 1.01 (inactive)

Qu. Item under review: CN1C2CCC1CC(=NO)C2 . Reported normalized growth?
Ans. 0.991 (inactive)

Taken from PubChem BioAssay AID1159580.
